# measured_target: T1, human CCR8 (human, UniProt P51685 1-355)
# T1 construct: Native CCR8 on human PBMC (CCR8+ CD3+ or CCR8+ CD4+ lymphocytes); also called chemokine (C-C motif) receptor 8
# T1 sequence (P51685 whole entry): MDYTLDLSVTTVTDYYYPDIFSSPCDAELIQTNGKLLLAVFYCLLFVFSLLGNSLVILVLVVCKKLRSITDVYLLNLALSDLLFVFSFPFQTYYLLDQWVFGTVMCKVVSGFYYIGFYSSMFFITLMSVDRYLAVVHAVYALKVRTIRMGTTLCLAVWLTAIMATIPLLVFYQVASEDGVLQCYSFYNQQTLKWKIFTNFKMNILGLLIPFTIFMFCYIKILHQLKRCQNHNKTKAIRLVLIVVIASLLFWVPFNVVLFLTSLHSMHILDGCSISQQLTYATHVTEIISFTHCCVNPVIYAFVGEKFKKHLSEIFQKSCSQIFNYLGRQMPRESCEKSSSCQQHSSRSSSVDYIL
# run_description: flow blocking, PBMC CCR8+CD3+; competitor PE-AB6
test_readout: MFI

[[record]]
binder = "AB8 (antibody, V domains shown, Hybridoma monoclonal; also called antibody 8; clone 8) VH: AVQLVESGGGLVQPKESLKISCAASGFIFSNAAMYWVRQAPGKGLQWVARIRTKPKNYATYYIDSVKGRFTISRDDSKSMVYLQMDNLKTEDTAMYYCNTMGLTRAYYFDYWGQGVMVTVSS VL: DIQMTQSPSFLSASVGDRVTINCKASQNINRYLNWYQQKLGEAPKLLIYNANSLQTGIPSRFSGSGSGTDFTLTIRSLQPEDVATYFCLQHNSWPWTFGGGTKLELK"
value = 1080

[[record]]
binder = "AB5 (antibody, V domains shown, Hybridoma monoclonal; Same VH/VL entries as AB6; also called antibody 5; clone 5) VH: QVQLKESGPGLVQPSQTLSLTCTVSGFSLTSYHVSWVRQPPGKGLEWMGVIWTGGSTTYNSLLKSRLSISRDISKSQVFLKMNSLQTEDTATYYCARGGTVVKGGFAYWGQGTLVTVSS VL: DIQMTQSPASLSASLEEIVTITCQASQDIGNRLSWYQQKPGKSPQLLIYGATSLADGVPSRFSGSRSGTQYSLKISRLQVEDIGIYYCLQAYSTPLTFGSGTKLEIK"
value = 579


Proceeding to the next binder to report its MFI.
**Query** If you can, please state the reported MFI value of AB13 (antibody, V domains shown, Hybridoma monoclonal; also called antibody 13; clone 13) VH: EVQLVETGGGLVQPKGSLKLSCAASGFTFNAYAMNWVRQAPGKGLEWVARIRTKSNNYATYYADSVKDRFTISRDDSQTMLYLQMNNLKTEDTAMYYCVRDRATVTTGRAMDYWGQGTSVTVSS VL: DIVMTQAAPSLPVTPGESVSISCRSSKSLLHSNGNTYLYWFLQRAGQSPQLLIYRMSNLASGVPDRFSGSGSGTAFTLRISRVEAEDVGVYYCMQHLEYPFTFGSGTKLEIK .
**Result** 1080

Where do these numbers come from? They come from patent US20240360228A1.
